test system: A549 NSCLC; assay: NCI tumour cell line growth inhibition, 48 h
Attribute: TGI

Solved cases (6 shown):
COMPOUND	OBSERVED VALUE
Cc1ccccc1CN1CC2=C(CCN(Cc3ccccc3)C2=O)N2CCN=C12	> 100 µM
C1CNCCNCCNCCN1	> 100 µM
CC1(CO)OC1COCc1ccccc1 (stereo not drawn)	> 100 µM
CC(C)=CC(=O)Oc1ccc([N+](=O)[O-])cc1	> 100 µM
CN(C)c1ccc(/C=N/n2c(-c3ccccc3)nc3ccccc3c2=O)cc1	> 100 µM
CC1(C)OC[C@@H]([C@@]2(CO[Si](C)(C)C(C)(C)C)CC=CC(=O)O2)O1	47.5 µM

Item N#CC1=C(N)OC2=C(COc3ccc(F)cc32)C1c1ccc(Cl)cc1 (stereo not drawn) has what recorded TGI? > 100 µM

Item Cc1c(C)c2c(c(N)c1C#N)C(=O)N(OS(=O)(=O)c1ccccc1)C2=O has what recorded TGI? 32.1 µM

----------
Attribute: TGI
test system: U251 CNS; experiment: NCI tumour cell line growth inhibition, 48 h

Solved cases (3 shown):
MOLECULE	TGI
S=c1nc(Oc2ccc(Cl)c(Cl)c2)[nH]c(=S)[nH]1	99.4 µM
COc1cc(C(=O)O[C@H](C(=O)NCCNC(=O)[C@@H](OC(=O)c2cc(OC)cc3c(C)cccc23)[C@]2(C)CO2)[C@]2(C)CO2)c2cccc(C)c2c1	0.306 µM
NC(CCl)=NC1CN2CCC1CC2 (centres undefined)	> 100 µM

Which TGI is reported with U251 CNS for this entry: N#CC(c1nc2ccccc2s1)c1nc(Cl)ncc1Br (centres undefined) ? > 100 µM

Which TGI is reported with U251 CNS for this entry: O=c1c2ncn(C3CCCCO3)c2n(-c2ccccc2)c(=S)n1-c1ccccc1 (centres undefined) ? > 74.2 µM

Which TGI is reported with U251 CNS for this entry: Cc1ccc2ccc(=O)oc2c1 ? > 100 µM

----------
system: KM12 colon; assay: NCI tumour cell line growth inhibition, 48 h
QUANTITY NAME: TGI

Solved cases (3 shown):
MOLECULE	OBSERVED VALUE
N/N=C(\CC1OC(=O)c2ccccc21)c1ccco1 (stereo not given)	> 100 µM
O=C1CCCCCCCCCCC(=O)C2CCOCCOCCOCCC1Cc1cccc(n1)C2	> 100 µM
COc1ccc2nc(-c3ccccc3)cc(Nc3ccc(C(C)=O)cc3)c2c1	5.2 µM

Item CC(C)(C)OC(=O)NC1CCCC1C(O)(C1=CCCC1)C1=CCCC1 (stereo not given) has what recorded TGI? > 100 µM

Item CC1(C)OC[C@@H]([C@@]2(CO[Si](C)(C)C(C)(C)C)CC=CC(=O)O2)O1 has what recorded TGI? > 100 µM

Item COc1cc2c(c(OC)c1OC)-c1ccc(SC)c(=O)cc1[C@@H](NC(=O)c1ccc(OC(C)=O)cc1)CC2 has what recorded TGI? 0.0407 µM

Item Cc1ccc(S(=O)(=O)Nc2nc3ccccc3c(=O)n2C2CCCCC2)cc1 has what recorded TGI? > 100 µM

Item OC(C1=C/C(=C\c2ccncc2)c2ccccc21)c1ccncc1 (stereo not given) has what recorded TGI? 35.1 µM

Item CN(NC(=O)CC(=O)NN(C)C(=S)c1ccccc1)C(=S)c1ccccc1 has what recorded TGI? > 100 µM

Item O=C1OC(C2Cc3ccccc3C2=O)c2ccccc21 (stereo not given) has what recorded TGI? > 100 µM

----------
system: RXF 393 renal; test: NCI tumour cell line growth inhibition, 48 h
QUANTITY NAME: TGI (µM)
Report the value in µM with no unit label.

COMPOUND	STUDY SYSTEM	QUANTITY NAME	OBSERVED VALUE
O=[N+]([O-])c1ccc(-c2nc(N(CCO)CCO)c3ccccc3n2)o1	RXF 393 renal	TGI	0.34
CCOC(=O)CCCn1c(SC)nc2cc(-c3ccco3)[nH]c2c1=O	RXF 393 renal	TGI	30.6

Now examine the next entry.
Item Cn1ccc2c(NCCN)c3c(c(NCCN)c21)C(=O)c1ccccc1C3=O has what recorded TGI? 3.67

----------
tested on: HCT-15 colon; experiment: NCI tumour cell line growth inhibition, 48 h
QUANTITY NAME: TGI

Solved cases (8 shown):
MOLECULE	OBSERVED VALUE
CCCCCNC(=O)[C@@H]1CCCN2C(=O)CC[C@H](NC(=O)[C@H](Cc3ccc(OP(=O)(O)O)cc3)NC(C)=O)C(=O)N12	> 25 µM
C=C(Cl)COC(=O)Nc1cccc(Cl)c1	> 100 µM
C=C1C(=O)O[C@@H]2C1C[C@@H](O)/C(C)=C/C/C=C(\C)CCC[C@H](C)[C@H]2OC(C)=O (some centres undefined)	51.9 µM
FC(F)(F)c1cccc(COCCN2CCN(Cc3cccc(C(F)(F)F)c3)CC2)c1	31.5 µM
N#CC1=C(N)N=C(N2CCCCC2)C(C#N)C12Nc1ccccc1S2 (centres undefined)	> 100 µM
O=c1c(/C=C/c2c(O)ccc3ccccc23)nnc2sc(-c3cccc([N+](=O)[O-])c3)nn12	> 100 µM
COc1ccc(C[C@H]2NC(=O)/C=C/C[C@@H]([C@H](C)[C@H]3O[C@@H]3c3ccccc3)OC(=O)[C@H](CC(C)C)OC(=O)[C@H](C)CNC2=O)cc1	> 0.0001 µM
C[C@@H]1O[C@@H](O[C@@H]2[C@@H](O)[C@H](OCCc3ccc(O)c(O)c3)O[C@H](COC(=O)/C=C/c3ccc(O)c(O)c3)[C@H]2O)[C@H](O)[C@H](O)[C@H]1O	> 100 µM

Now examine the next entry.
Which TGI is reported with HCT-15 colon for this entry: O=C1C(=Cc2ccco2)C(=O)C2CCCCC12 (centres undefined) ? > 100 µM

----------
Attribute: TGI
tested on: A549 NSCLC; assay: NCI tumour cell line growth inhibition, 48 h

COMPOUND	TGI
COC(=O)C1=C(O)C(C(=O)OC)[C@]2(O)[C@H](C(=O)OC)[C@H]1C[C@@H](c1cccc(OC)c1)[C@H]2C(=O)OC (some centres undefined)	75.3 µM
COC1/C(=C\C(=O)OC(C)(C)C)c2ccccc2N1C(C)=O (centres undefined)	> 100 µM
COC1/C=C\C=C(/C)C(=O)Nc2cc3nc4ccc(Br)cc4oc-3c(c2=O)CC(C)CC(OC)C(O)C(C)/C=C(\C)C1OC(N)=O (centres undefined)	22.7 µM
OCc1c2c(cc3c1CC1(C3)Cc3cc4c(c(CO)c3C1)CCC4)CCC2	30.9 µM
N#Cc1ccc(/C=N/NC(=O)CSCC(=O)N/N=C/c2ccc(C#N)cc2)cc1	> 100 µM
CC(=O)NC1=C(Nc2ccc(C)cc2)C(=O)c2ccccc2C1=O	29.3 µM

Item CC(=O)c1cc2c(s1)C(=O)c1scc(C(C)=O)c1C2=O has what recorded TGI? 2.71 µM

Item Cc1cccc(C)c1NC(=O)CCCC(=O)CC(=O)/C=C/c1ccccc1 has what recorded TGI? > 100 µM

Item CN(C)CC(/C(Cc1ccccc1)=N\NC(=O)c1ccncc1)c1ccccc1 (centres undefined) has what recorded TGI? > 100 µM

Item CC(=O)Nc1nc(SCc2ccccc2)c2ncn(C(C)=O)c2n1 has what recorded TGI? > 100 µM

----------
system: MALME-3M melanoma; test: NCI tumour cell line growth inhibition, 48 h
Attribute: TGI

Item COc1ccc2nc(-c3ccccc3)cc(Nc3ccc(C(C)=O)cc3)c2c1 has what recorded TGI? 18.7 µM

Item CN(C)NC1=NS(=O)(=O)c2cc3c(cc2S1)N(N(C)C)C(=O)c1cc2c(cc1N(N(C)C)C3=O)SC(NN(C)C)=NS2(=O)=O has what recorded TGI? > 10 µM

Item C/C=C1/CN2[C@@H](C3=C[C@@H]4[C@@H]5N(C3=O)c3ccccc3[C@@]53CCN5C/C(=C/C)[C@@H]4C[C@H]53)C[C@@]34c5ccccc5N5C(=O)CC=C([C@H]1C[C@H]23)[C@H]54 has what recorded TGI? 12.5 µM

Item CC(C)=CC(=O)Oc1ccc([N+](=O)[O-])cc1 has what recorded TGI? > 100 µM

Item CN(C)c1ccc(/C=N/n2c(-c3ccccc3)nc3ccccc3c2=O)cc1 has what recorded TGI? > 100 µM

Item c1cc2c(cc1C(N1CCNCC1)N1CCNCC1)OCO2 has what recorded TGI? > 100 µM

Item COC(=O)/C=C(C)/C=C/c1cc(C(C)=O)c(C)o1 has what recorded TGI? > 100 µM

Item Cn1nc(-c2ccccc2)c(N=[N+]=[N-])cc1=O has what recorded TGI? > 100 µM

Item CC([C@H]1CCC2C3CCC4C[C@@H](NC=O)CC[C@]4(C)C3CC[C@@]21C)N(C)C (some centres undefined) has what recorded TGI? 4.83 µM

----------
Attribute: TGI
test system: HOP-92 NSCLC; assay: NCI tumour cell line growth inhibition, 48 h
Report the value in µM with no unit label.

MOLECULE	QUANTITY NAME	MEASURE UNIT	OBSERVED VALUE
CCC1=C[C@@H]2CN(C1)Cc1c([nH]c3ccccc13)[C@@](C(=O)OC)(c1cc3c(cc1OC)N(C=O)[C@H]1[C@@](O)(C(=O)OC)[C@H](OC(C)=O)[C@]4(CC)[C@@H]5C[C@@H]5CN5CC[C@]31[C@@H]54)C2	TGI	µM	0.226
N#CC(c1nc2ccccc2s1)c1nc(Cl)ncc1Br (stereo not given)	TGI	µM	52

Which TGI is reported with HOP-92 NSCLC for this entry: O=C(Nc1ccc(-n2cc(-c3ccncc3)c(-c3ccc(Cl)c(O)c3)n2)cc1)Nc1cc(C(F)(F)F)cc(C(F)(F)F)c1 ? 3.99

Data origin, for the record: PubChem BioAssay (NCI)
